Measured values drawn from the supplement of paper PMC11208160 for this set.

Test: recombinant UMI read abundance after kanamycin selection (control-corrected) (log10(CPM+1)); higher = more efficient recombination; extreme values may be limits of the assay; sequences stand for … in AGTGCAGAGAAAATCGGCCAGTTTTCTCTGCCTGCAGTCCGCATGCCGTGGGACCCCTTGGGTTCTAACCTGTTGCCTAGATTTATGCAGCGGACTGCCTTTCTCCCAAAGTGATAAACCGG…AGGTTGGTTTCACT; site = the 11-nt donor;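 also: IS621 bridge recombinase in Escherichia coli cells against a fixed T5 target plasmid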
recombinant UMI read abundance (log10) values for the sequences below.
Quantity Kind: recombinant UMI read abundance (log10)

Seq Text	Experimental Result
GTAGTTGCATGGACCGGTTTTCCCGGTAATCCGTATTTGCG (site GTAGTCGCTCG)	1.78
ATAAGGCCATGGACCGGTTTTCCCGGTAATCCGTATTTGAG (site ATAAGGCCTAT)	0.00358
GGTACGTCATGGACCGGTTTTCCCGGTAATCCGTATTTGAT (site GGTACGTCTAG)	0
GGCCTAGCATGGACCGGTTTTCCCGGTAATCCGTATTTGTT (site TGCCTAGCTAA)	0.0108
CACTCCTCATGGACCGGTTTTCCCGGTAATCCGTATTTGCG (site CACTCCTCTCG)	1.71
CCATTCTCATGGACCGGTTTTCCCGGTAATCCGTATTTGGG (site CCTTTCTCTCC)	0.0196
GTCGAGGCATGGACCGGTTTTCCCGGTAATCCGTATTTGTG (site GTAGAGGCTCA)	0.867
CAAGTCACATGGACCGGTTTTCCCGGTAATCCGTATTTGGA (site CAAGTCACTCC)	0.638
GACAAACCATGGACCGGTTTTCCCGGTAATCCGTATTTGGT (site GATAAACCTAC)	0
